attribute_measured: melting point

Before answering, review these 3 worked examples.
{"compound": "COc1ccc(C2=NC(NC(=O)Nc3ccc(C(=O)c4ccccc4)cc3)c3nnc(C)n3-c3ccccc32)cc1 (stereo not shown)", "recorded_value": "225 °C"}
{"compound": "Cc1nnc2n1-c1ccccc1C(c1ccccc1)=NC2NC(=O)Nc1ccccc1 (stereo not shown)", "recorded_value": "> 260 °C"}
{"compound": "Cc1nnc2n1-c1ccc(Br)cc1C(c1ccccc1F)=NC2NC(=O)OCc1ccccc1 (stereo not shown)", "recorded_value": "160 to 170 °C"}

Now for the compound whose melting point we want.
# get_value(readout='melting point', item= COc1ccc2cc(C(=O)NC3N=C(c4ccccc4)c4ccccc4-n4c(C)nnc43)[nH]c2c1 (stereo not shown) )
160 to 170 °C
